test system: RT-112; assay: Antiproliferative activity against human RT112 cells after 48 hrs by MTT assay; format: functional, cell-based; settings: RT-112, 48 h
Record form. Attribute: pIC50. Fill in for each entry.
One number for each entry, as −log10 of the molar value.

Some entries whose results are on file:
lineNotation | parameterMeasured | valueObserved
COc1ccc(/C=C/C(=O)c2cn(C)c3ccccc23)c(OC)c1 | pIC50 | 4.24
Cn1cc(C(=O)/C=C/c2ccccc2)c2ccccc21 | pIC50 | 4.51
Cn1cc(C(=O)/C=C/c2ccccc2F)c2ccccc21 | pIC50 | 4.54

Can you give me pIC50 for all of these, one by one?
1. COc1cc(OC)c(/C=C/C(=O)c2cn(C)c3ccccc23)c(OC)c1
2. COc1cc(OC)c(/C=C/C(=O)c2cn(C)c3ccc(C(=O)O)cc23)c(OC)c1
3. COc1cccc(OC)c1/C=C/C(=O)c1cn(C)c2ccccc12

Result:
1. 5.49
2. 4.06
3. 4.32

====

tested on: RT-112; test: Antiproliferative activity against human RT112 cells after 48 hrs by MTT assay; format: functional, cell-based; conditions: RT-112, 48 h
Record form. Attribute: pIC50. Fill in for each entry.
One number for each entry, as −log10 of the molar value.

Please review the following examples before continuing.
lineNotation | pIC50
Cn1cc(C(=O)/C=C/c2c(Cl)cccc2Cl)c2ccccc21 | 5.11
COc1cc(/C=C/C(=O)c2cn(C)c3ccccc23)cc(OC)c1OC | 4.37
CN(C)c1ccc(/C=C/C(=O)c2cn(C)c3ccccc23)cc1 | 5.12
CN1CCN(c2ccccc2/C=C/C(=O)c2cn(C)c3ccccc23)CC1 | 4.58

Please give pIC50 for each item listed below.
1. COc1cc(OC)c(C(=O)/C=C/c2ccc3c(ccn3C)c2)c(OC)c1
2. Cn1ccc2cc(/C=C/C(=O)c3cn(C)c4ccccc34)ccc21
3. CN1CCN(c2ccc(/C=C/C(=O)c3cn(C)c4ccccc34)cc2)CC1
4. Cn1cc(/C=C/C(=O)c2cn(C)c3ccccc23)c2ccccc21
5. COc1cc(OC)c(/C=C/C(=O)c2cn(C)c3ccc(OC)cc23)c(OC)c1

Result:
4.27
5.40
4.93
4.20
5.51
